Assay: inhibitors of TNFa-induced NFkB p65 translocation, primary screen, imaging, HUVEC, MLSMR starter and 10KST1 sets (AID 438);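 also: compound added about 3h40 before a 20 min TNFalpha stimulation; signal is the nuclear over cytoplasmic p65 intensity ratio per well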
Settings: HUVEC TNFa-induced p65 nuclear translocation; at 2 µM, hits give high values, 0% TNFa-plus-vehicle, 100% no-TNFa wells
OBSERVED PROPERTY: inhibition (%)

INSERT INTO assay_data (compound, observed_property, unit_text, result_number) VALUES
  ('CSc1ccccc1N=CC1=C(O)CC(C)(C)CC1=O', 'inhibition', '%', 7.1),
  ('COc1ccc(C2C(C(=O)N3CCCC3)c3cc(OC)c(OC)cc3C(=O)N2C)cc1 (stereo not given)', 'inhibition', '%', -21.8),
  ('Cc1nc2sc(C(c3cccs3)N3CCC(C(N)=O)CC3)c(O)n2n1 (stereo not given)', 'inhibition', '%', -3.9),
  ('Cc1cccc(N2C(=O)CC(Sc3nc(C)c4c(n3)CCCC4)C2=O)c1 (stereo not given)', 'inhibition', '%', 3.4),
  ('CC(C)Cn1c(CN2CCCCC2C)nc2c1c(=O)n(C)c(=O)n2C (stereo not given)', 'inhibition', '%', -10),
  ('CCOc1ccc(N(CC(=O)NCc2cccc(OC)c2)S(=O)(=O)c2c(C)noc2C)cc1', 'inhibition', '%', -3.2),
  ('O=C(NCc1ccco1)c1csc(Nc2ccccc2Cl)n1', 'inhibition', '%', -6.2),
  ('CCN(CC)S(=O)(=O)c1cccc(-c2nnc(SCC(N)=O)n2CCc2ccccc2)c1', 'inhibition', '%', -4.4),
  ('CCCOC(=O)c1ccc(-c2c(C)noc2-c2ccc(OC)cc2O)o1', 'inhibition', '%', -6.3),
  ('O=C(c1ccccc1F)N1CCN(Cc2cccc(Cl)c2)CC1', 'inhibition', '%', 3);

* * *

Target: Voltage-gated potassium channel subunit beta-2 (Rattus norvegicus) (UniProt P62483)
Sequence (P62483 whole entry, looked up): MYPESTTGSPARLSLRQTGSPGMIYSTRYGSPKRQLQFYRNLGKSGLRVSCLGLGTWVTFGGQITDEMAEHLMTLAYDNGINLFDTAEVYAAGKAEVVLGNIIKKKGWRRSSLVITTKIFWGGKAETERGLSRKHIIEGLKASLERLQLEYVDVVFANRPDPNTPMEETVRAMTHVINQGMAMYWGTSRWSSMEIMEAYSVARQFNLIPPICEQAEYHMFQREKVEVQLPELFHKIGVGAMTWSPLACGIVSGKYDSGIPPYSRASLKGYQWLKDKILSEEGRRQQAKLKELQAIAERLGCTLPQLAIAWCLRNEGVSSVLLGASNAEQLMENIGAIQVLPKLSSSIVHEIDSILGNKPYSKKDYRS
Assay: inhibitors of rat Kvbeta2 reductase activity – biochemical, NADPH fluorescence, primary screen (AID 622);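 also: slope of raw intensity against log time taken from 70 to 1610 s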
Settings: recombinant KvBeta, 4-cyanobenzaldehyde reduction, at 10 µM
Activity calls are given as the source filed them.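 Rule for the calls: active = fluorescence slope higher than the sample average by over 3 SD (cut at about -0.22 in these data, passing the limit was not always enough); inactive = the rest.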
Possible outcomes: YES (active), NO (inactive)

INSERT INTO assay_data (compound, target_system, answer_label) VALUES
  ('Cc1cc(C)nc(NC(=O)c2cnc3sccn3c2=O)n1', 'Voltage-gated potassium channel subunit beta-2 (Rattus norvegicus) (UniProt P62483)', 'NO'),
  ('Cc1nc2sc(C(c3cccs3)N3CCC(C(N)=O)CC3)c(O)n2n1 (configuration not stated)', 'Voltage-gated potassium channel subunit beta-2 (Rattus norvegicus) (UniProt P62483)', 'NO'),
  ('Cc1c(C(=O)Nc2cnccn2)oc2ccccc12', 'Voltage-gated potassium channel subunit beta-2 (Rattus norvegicus) (UniProt P62483)', 'NO'),
  ('O=C(CSc1ncnc2c1cnn2-c1ccccc1)Nc1ccccc1', 'Voltage-gated potassium channel subunit beta-2 (Rattus norvegicus) (UniProt P62483)', 'NO'),
  ('COC(=O)C1=C(C)NC(C)=C(C(=O)OC)C1C1CC=CCC1 (configuration not stated)', 'Voltage-gated potassium channel subunit beta-2 (Rattus norvegicus) (UniProt P62483)', 'NO'),
  ('Cn1c(SCC(=O)Nc2cccc3ccccc23)nc(O)cc1=O', 'Voltage-gated potassium channel subunit beta-2 (Rattus norvegicus) (UniProt P62483)', 'NO'),
  ('CN1CCN(c2oc(COc3ccc(-c4ccccc4)cc3)nc2C#N)CC1', 'Voltage-gated potassium channel subunit beta-2 (Rattus norvegicus) (UniProt P62483)', 'NO'),
  ('CCOC(=O)C1CCN(c2cc(C)nc3cc(-c4cccc(F)c4)nn23)CC1', 'Voltage-gated potassium channel subunit beta-2 (Rattus norvegicus) (UniProt P62483)', 'NO'),
  ('O=C1N(c2ccccc2)C2CS(=O)(=O)CC2N1c1ccc(Br)cc1 (configuration not stated)', 'Voltage-gated potassium channel subunit beta-2 (Rattus norvegicus) (UniProt P62483)', 'NO'),
  ('COC(=O)c1ccc(C)c(NS(=O)(=O)c2ccc3c(c2)OCCO3)c1', 'Voltage-gated potassium channel subunit beta-2 (Rattus norvegicus) (UniProt P62483)', 'NO'),
  ('COC(=O)c1ccccc1NC(=O)c1ccc(COc2ccccc2)o1', 'Voltage-gated potassium channel subunit beta-2 (Rattus norvegicus) (UniProt P62483)', 'NO'),
  ('COc1cc(CN2CCC(C(=O)NC3CCCC3)CC2)ccc1O', 'Voltage-gated potassium channel subunit beta-2 (Rattus norvegicus) (UniProt P62483)', 'NO'),
  ('CCOC(=O)CSc1nc2c(c(-c3ccc(C)o3)c1C#N)CCCC2', 'Voltage-gated potassium channel subunit beta-2 (Rattus norvegicus) (UniProt P62483)', 'NO'),
  ('CCOc1ncccc1C(=O)OCC(=O)N1CC(=O)Nc2ccccc21', 'Voltage-gated potassium channel subunit beta-2 (Rattus norvegicus) (UniProt P62483)', 'NO'),
  ('CCN1CCN(C(=O)C2CCN(C(=O)c3cc4sccc4n3CC)CC2)CC1', 'Voltage-gated potassium channel subunit beta-2 (Rattus norvegicus) (UniProt P62483)', 'NO'),
  ('COc1ccc(C2C(C#N)=C(N)OC3=C2C(=O)CC(C)C3)c(OC)c1OC (configuration not stated)', 'Voltage-gated potassium channel subunit beta-2 (Rattus norvegicus) (UniProt P62483)', 'NO'),
  ('Cc1cnn(Cc2ccccc2)c1N', 'Voltage-gated potassium channel subunit beta-2 (Rattus norvegicus) (UniProt P62483)', 'NO'),
  ('COc1ccc(CCNC(=O)CSCc2n[nH]c(=O)[nH]2)cc1OC', 'Voltage-gated potassium channel subunit beta-2 (Rattus norvegicus) (UniProt P62483)', 'NO'),
  ('Cc1cc2nc(C3CCN(CC4COc5ccccc5O4)CC3)[nH]c2cc1C (configuration not stated)', 'Voltage-gated potassium channel subunit beta-2 (Rattus norvegicus) (UniProt P62483)', 'NO'),
  ('O=C(CSc1nc(O)c(Cc2ccccc2)c(=O)[nH]1)Nc1ccccc1', 'Voltage-gated potassium channel subunit beta-2 (Rattus norvegicus) (UniProt P62483)', 'NO'),
  ('O=C(Nc1cccnc1)c1cccc(NC(=O)c2ccco2)c1', 'Voltage-gated potassium channel subunit beta-2 (Rattus norvegicus) (UniProt P62483)', 'NO'),
  ('CC(=O)c1ccc(-c2nc3ccccc3n2C)o1', 'Voltage-gated potassium channel subunit beta-2 (Rattus norvegicus) (UniProt P62483)', 'YES'),
  ('CC(=O)c1cccc(S(=O)(=O)NCC(c2ccco2)N2CCCCC2)c1 (configuration not stated)', 'Voltage-gated potassium channel subunit beta-2 (Rattus norvegicus) (UniProt P62483)', 'NO'),
  ('CC1(C)CNC(=O)CC(C)(C)N1O', 'Voltage-gated potassium channel subunit beta-2 (Rattus norvegicus) (UniProt P62483)', 'NO'),
  ('COCCn1c(SCC(=O)Nc2cccc(OC)c2)nnc1-c1ccccc1', 'Voltage-gated potassium channel subunit beta-2 (Rattus norvegicus) (UniProt P62483)', 'NO'),
  ('Cc1ccccc1-n1nnc2c(=O)oc3ccccc3c21', 'Voltage-gated potassium channel subunit beta-2 (Rattus norvegicus) (UniProt P62483)', 'NO'),
  ('CCOC(=O)C1=C(C)N=c2s/c(=C\c3cccn3C)c(=O)n2C1c1cccc(OC)c1OC (configuration not stated)', 'Voltage-gated potassium channel subunit beta-2 (Rattus norvegicus) (UniProt P62483)', 'NO'),
  ('CCOC(=O)C1CCCN(C(=O)c2cn(C)c(=O)c3cc(OC)c(OC)cc23)C1 (configuration not stated)', 'Voltage-gated potassium channel subunit beta-2 (Rattus norvegicus) (UniProt P62483)', 'NO'),
  ('CCOC(=O)C1=C(C)NC2=C(C(=O)CC(C)(C)C2)C1c1ccc(N(C)C)cc1 (configuration not stated)', 'Voltage-gated potassium channel subunit beta-2 (Rattus norvegicus) (UniProt P62483)', 'NO'),
  ('CC1CCCN(C(=O)CN2C(=O)c3ccccc3C2=O)C1 (configuration not stated)', 'Voltage-gated potassium channel subunit beta-2 (Rattus norvegicus) (UniProt P62483)', 'NO'),
  ('OCCn1c(-c2ccc3c(c2)OCO3)csc1=Nc1ccccc1', 'Voltage-gated potassium channel subunit beta-2 (Rattus norvegicus) (UniProt P62483)', 'NO'),
  ('CC(=O)c1cccc(N(CC(=O)N2CCCC2)S(C)(=O)=O)c1', 'Voltage-gated potassium channel subunit beta-2 (Rattus norvegicus) (UniProt P62483)', 'NO'),
  ('CCC(=O)Nc1ccc(NC(=O)c2cccc(OC)c2)nc1', 'Voltage-gated potassium channel subunit beta-2 (Rattus norvegicus) (UniProt P62483)', 'NO'),
  ('O=C(CN1CCCN(S(=O)(=O)c2ccc(Br)cc2)CC1)Nc1ccc2c(c1)OCO2', 'Voltage-gated potassium channel subunit beta-2 (Rattus norvegicus) (UniProt P62483)', 'NO'),
  ('C=CCOc1ccc(/C(CC)=N/O)c(OC)c1', 'Voltage-gated potassium channel subunit beta-2 (Rattus norvegicus) (UniProt P62483)', 'NO'),
  ('CN(C)S(=O)(=O)c1ccc(C(=O)NCc2cccs2)cc1', 'Voltage-gated potassium channel subunit beta-2 (Rattus norvegicus) (UniProt P62483)', 'NO'),
  ('O=S(NCc1ccco1)C12CC3CC(CC(C3)C1)C2 (configuration not stated)', 'Voltage-gated potassium channel subunit beta-2 (Rattus norvegicus) (UniProt P62483)', 'NO');

Provenance of the data: PubChem BioAssay
